target: DLG1_2, Q12959; assay: holdup assay; set-up: key: below the threshold = too weak to quantify, mostly under pKd 3.1 to 4; settings: plain residues with an end cap or a label only (N-terminal biotin on a linker: ado-ado)
Sequence (Q12959 314-412): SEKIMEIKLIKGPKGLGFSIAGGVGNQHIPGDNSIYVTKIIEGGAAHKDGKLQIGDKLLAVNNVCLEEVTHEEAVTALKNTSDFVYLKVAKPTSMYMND
Readout label: pKd

SAGADSETHC [SLCO1B1, Q9Y6L6]
below the threshold
LVEEEEPMNL [HDAC7, Q8WUI4]
below the threshold
FLVTEFNVML [DFNB31, Q9P202]
below the threshold
KSRPENGTVC [TMEM178B, H3BS89]
below the threshold
GSQSQVETEA [FKBP4, Q02790]
below the threshold

In: // returns reported pKd for input KEKASTETEC [TRPM1, Q7Z4N2]
Out: 4.23

In: State the recorded pKd for this entry: SKQFDKNAYV [CLDN10, P78369]
Out: below the threshold

In: Which pKd is listed for PALKNGQYWV [CSPG4, Q6UVK1] ?
Out: below the threshold
